Quick reference for EC50 among some binders
TARGET: T1, SARS-COV-2 RBD (SARS-COV-2, UniProt P0DTC2 319-539)
T1 construct: also called WT RBD
MEASUREMENT NOTES: ELISA, RBD coated
Enter your answer as a number in ng/mL; do not include the unit.

Field: example entries. Status: answers known.
[[record]]
binder = "C1026 (antibody, V domains shown, IgG; V domains only) VH: QVQLVESGGGVVQPGKSLRLSCAASGFIFSSYSMHWVRQAPGKGLEWVAVVSNDGSGKFYADSVRGRFTIFRDNSKNTLYLQVSSLRAEDTAVYYCARDALTSISVLFDCWGQGTLVTVSS VL: DIQMTQSPSSLSASLGDRVTITCRASQSISNYLNWYQQKPGKAPKLLIYGASSLQSGVPSRFSGSGSGTDFTLTISNLQPEDFATYFCQQSYSTPSVTFGGGTKVEIK"
observed_value = 2.5

[[record]]
binder = "C864 (antibody, V domains shown, IgG; V domains only) VH: QVQLVQSGPEVKKPGTSVKVSCKAFQLSFSVSAVQWVRQARGQRLEWIGWIVVGSGNTNYAQKFQERVTITRDMSTSTVYMEVRSLRSEDTAVYYCAAPQCNRTTCYDAFDMWGQGTMVTVSS VL: EIVLTQSPGTLSLSPGERATLSCRASQSVNSNYLAWYQQKPGQAPRLLIFGPSNRATGIPDRFSGSGSGTDFTLTISRLESEDFAVYYCQQYGSSPWTFGQGTKVEIK"
observed_value = 1.89

[[record]]
binder = "C846 (antibody, V domains shown, IgG; V domains only) VH: QVQLVESGGGVFQPGRSLRLSCAASGFNFRTYAMHWVRQAPGKGLEWVAVILDDGSGKFYADSVKGRFTVSRDNSKHTLYLQMTSLSAEDTAIYFCARDQGTATTYFDHWGQGTLVTVSS VL: DIQMTQSPSSLSASVGDRVTITCRASQSIRTFLSWYQQKAGKAPKLLIYTASSLQNGVPSRFSGSGSGTDFTLTISSLQPEDFATYYCQQSYETPPWTFGQGTKVEIK"
observed_value = 3.48


So for C1013 (antibody, V domains shown, IgG; V domains only) VH: QVQLVQSGVEVKKPGSSVKVSCKASGGTFTDYAFSWVRQAPGQGLEWMGGIVPIFATPDYAEKFRGRVTITADESTSTAYMELSTLKSEDTAVYYCARASLTLPIRAAPRFWFDAWGQGTLVTVSS VL: EIVMTQSPATLSVSPGERATLSCRASQGVSTHLAWYQQKPGQAPRLLIYGASTRATGIPARFSGSGSGTEFTLTISSLQSEDFAVYYCQQYHKWPPALTFGGGTKVEIK , the logged EC50 turned out to be 8.92

Per the records, this binder ( C1011 (antibody, V domains shown, IgG; V domains only) VH: QVQLVESGGGVVQPGRSLRLSCAVSGFTFSHYAMHWVRQAPGKGLEWVAVISYDGADKYYADSVRGRFTIARDNSKNTLFLQMSSLRPEDTAVYYCAKKGQPYCGGDCHFYYLDYWGQGTLVTVSS VL: DIQMTQSPSSLSASVGDRVTITCQASQDISNHLNWYQQKPGKAPKLLIYDASNLETGVPSRFSGSGSGTDFTFTISSLQAEDIATYYCQQYDNLPPITFGQGTRLEIK ) has EC50 equal to 1.49

For record C964 (antibody, V domains shown, IgG; V domains only) VH: EVQLVESGGGLVQPGRSLRLSCAASGFTFDDYGMHWVRQAPGKGLEWVSGISWNSGSIAYAEFVKGRFTISRDNAKNSLYLQMNSLRTEDTALYYCAKAVPTSCYVFCALDIWGQGTMVTVSS VL: DIQMTQSPSSLSASVGDRVTITCRASQGISNYLAWYQQSPGKVPKLLIYAASTLQSGVPSRFSGSGSGTDFTLTISSLQPEDVATYYCQKYNSGPALTFGGGTKVEIK the listed EC50 is 2.79
